System: LNCaP
Experiment: Induction of cholesterol metabolism deregulation in human LNCAP cells assessed as reduction in NBD-cholesterol uptake at 30 uM after 48 hrs by DAPI/Alexa fluor 633 phalloidin staining based high-content imaging analysis
Format: functional, cell-based
The source made the active and inactive calls. The calls are words filed in the database; no cut-off is given here.
quantity-name: Activity

Looking for the measured Activity of "C=C1C[C@]23C[C@@]1(O)CC[C@H]2[C@@]12C=C[C@H](O)[C@](C)(C(=O)O1)[C@H]2[C@@H]3C(=O)NCc1ccc(Cl)cc1" , can you help?
Active

Try this molecule next: "C=C1C[C@]23C[C@@]1(O)CC[C@H]2[C@@]12C=C[C@H](O)[C@](C)(C(=O)O1)[C@H]2[C@@H]3C(=O)NCCc1ccc(Br)cc1"
Active

Try this molecule next: "C=C1C[C@]23C[C@@]1(O)CC[C@H]2[C@@]12C=C[C@H](O)[C@](C)(C(=O)O1)[C@H]2[C@@H]3C(=O)NCCc1ccccn1"
Active
